# System: RXF 393 renal
# ASSAY PROCEDURE: NCI-60 one-dose screen, 48 h
# CONDITION SET: 10 µM unless noted
About 83,000 compounds went through this panel and 20% of them were active in at least one assay; those are over-represented in the sample as a whole. The source made the active and inactive calls. How the source made its calls: active means growth percent below 10; inactive means the rest.
Possible outcomes: active, inactive

1) COc1ccc(C(c2cc(OC)c(OC)c(OC)c2)n2cncn2)cc1O (stereo unspecified) ... active
2) COc1cccc2cc(N(C)c3nc(C)nc4c3CCC4)ccc12 ... inactive
3) CC1=NN(c2cccc(Cl)c2)C(=O)/C1=C\C=C\c1ccccc1 ... active
4) Cn1ccnc1C(=O)/C=C/c1ccc(CC(=O)Nc2cc(F)c(F)c(F)c2)cc1 ... active
5) CC(C)(C)CC(C)(C)Nc1c(-c2c(O)c3ccccc3oc2=O)nc2sccn12 ... inactive
6) Oc1ccc(Cc2ccc(O)c3ncccc23)c2cccnc12 ... active
7) COc1ccc(NC(=O)CSc2oc(-c3ccccc3)nc2S(=O)(=O)c2ccc(Cl)cc2)c(OC)c1 ... inactive
8) Cn1nc(-c2ccc(Cl)cc2)nc2c(=O)n(C)c(=O)nc1-2 ... active
9) NS(=O)(=O)Oc1cccc(-c2nc3sccn3c2-c2ccccc2)c1 ... inactive
10) CNC(=O)c1cc(Oc2ccc3nc(NC(=O)c4cc(C(F)(F)F)cc(C(F)(F)F)c4)sc3c2)ccn1 ... active
11) C=C(C)Cn1c(SCC(=O)c2cccs2)nc2sc3c(c2c1=O)CCCC3 ... inactive
12) COc1ccccc1-c1nc2ccc3[nH]ncc3c2c2c1CCCC2 ... inactive
13) Cc1cc([N+](=O)[O-])ccc1NC(=O)c1ccc2c(c1)nc(-c1ccccc1)n2C1CCCCC1 ... inactive
14) CC(CN)[C@@H]1CC[C@]2(CO)CC[C@]3(C)[C@H](CC[C@@H]4[C@@]5(C)CCC(NCCO)C(C)(C)[C@@H]5CC[C@]43C)[C@@H]12 (stereo partly specified) ... inactive
15) COC(CCP(=O)(c1ccccc1)c1ccccc1)(C(=O)c1ccccc1)c1ccccc1 (stereo unspecified) ... inactive
16) Brc1ccc(-c2nn(-c3ccccc3)cc2-c2nn[nH]n2)s1 ... inactive
17) CNC(=O)c1cc(Oc2cccc3nc(NC(=O)Nc4ccc(F)cc4F)ccc23)ccn1 ... active
18) c1ccc(Cn2cc3c(c2)-c2nc(Nc4ccccc4)ncc2CC3)cc1 ... inactive
19) CN1C(=O)N(C)C2C1NN=c1s/c(=C\c3ccccc3F)c(=O)n12 (stereo unspecified) ... active
20) O=C1c2ccccc2C(=O)c2cc(Cn3c[n+](Cc4ccc5ccccc5c4)c4ccccc43)ccc21 ... inactive
21) COC(=O)[C@@H](Cc1c[nH]c2ccccc12)NC(=O)[C@H](Cc1ccccc1)NCc1ccncc1 ... inactive
22) O=C(/C=C/c1ccc(Cl)cc1)c1ccc(-n2cc(CN3CCN(c4cc5c(cc4F)c(=O)c(C(=O)O)cn5C4CC4)CC3)nn2)cc1 ... inactive
23) CC/C(=C(/c1ccc(Cl)cc1)c1ccc(OCCN2CCCCCC2)cc1)c1ccccc1 ... inactive
24) Cc1c(Cl)cccc1NC(=O)c1sc2nc3c(cc2c1N)CCCC3 ... inactive
25) C=C(C)[C@@H]1CCC[C@]2(C(=O)OC)CC[C@]3(C)[C@@H](CC[C@@H]4[C@@]5(C)CCCNC(C)(C)[C@@H]5CC[C@]43C)[C@@H]12 ... inactive
26) O=C(Nc1ccc(Cl)cc1)C1=NCCCCN1 ... inactive
27) O=C(/C=C\c1ccc(O)c(O)c1)c1ccccc1O ... inactive
28) CCOC(=O)c1c2c(n3ccc(NC(=O)CCN4CCCC4)cc13)C(=O)c1ncccc1C2=O ... inactive
29) O=C(O)c1cc2ccccc2s1 ... inactive
30) Nc1nc(=O)n([C@H]2CC=C(CO)O2)cc1F ... inactive
31) CCOC(=O)/C(=C\c1ccccc1Cl)P(=O)(OCC)OCC ... inactive
32) CC(=O)/C(Br)=C/c1ccc(Br)o1 ... active
33) Cc1c2ccncc2c(C)c2c1c1ccccc1n2CCCCCC(=O)O ... inactive
34) Cn1cc(-c2ccc3occ(-c4cccc(-c5ccncc5)c4)c3n2)cn1 ... active
35) CN1C(=O)N(C)C2C1NN=c1s/c(=C\c3ccc(F)cc3)c(=O)n12 (stereo unspecified) ... inactive
36) Cc1ccc(C23CCC(=O)N2CCc2cncn23)cc1 (stereo unspecified) ... inactive
37) Cn1ccnc1C(=O)/C=C/c1ccc(C(=O)Nc2c(F)c(F)c(F)c(F)c2F)cc1 ... active
38) CCOC(=O)c1ccc2c(c1)c1c(C)c3cnccc3c(C)c1n2C ... active
39) CCOC(=O)CC1CSC(N/N=C/c2ccc(O)cc2)=N1 (stereo unspecified) ... inactive
40) COc1cccc(C(=O)Nc2cccc(NC(=O)c3ccccn3)c2)c1 ... inactive
41) O=C(O)/C=C/c1cn(-c2ccccc2)nc1-c1ccc(F)cc1 ... inactive
